log10(MIC) for assorted compounds
test system: MRSA COL (NRS100); experiment: MIC, broth micro-dilution technique (CLSI); format: cell-based, Staphylococcus aureus; conditions: Staphylococcus aureus, 22 h, read-out: MIC (μg/mL) (COL)
Observed property: log10(MIC) (log10 of the value in µg/mL)

Entry smiles | log10(MIC)
CC(=O)[C@H](C)NC(=O)[C@@H]1Cc2ccc(O)c(c2)-c2cc(ccc2O)[C@H](N(C)C(=O)[C@H](CCCCN)NC(=O)c2ccc(-c3ccc(Cl)cc3)cc2)C(=O)N[C@@H](C)C(=O)N1 | 0.00
C[C@@H]1NC(=O)[C@@H](N(C)C(=O)[C@H](CCCCN)NC(=O)c2ccc(-c3ccc(Cl)cc3)cc2)c2ccc(O)c(c2)-c2cc(ccc2O)C[C@@H](C(=O)N[C@@H](C)C(=O)N(C)[C@@H]2CCNC2=O)NC1=O | 1.23
C[C@H](NC(=O)[C@@H]1Cc2ccc(O)c(c2)-c2cc(ccc2O)[C@H](N(C)C(=O)[C@H](CCCCN)NC(=O)c2ccc(-c3ccc(Cl)cc3)cc2)C(=O)N[C@@H](C)C(=O)N1)C(=O)CCC(N)=O | 1.51
COP(=O)(O)CC(=O)[C@H](C)NC(=O)[C@@H]1Cc2ccc(O)c(c2)-c2cc(ccc2O)[C@H](N(C)C(=O)[C@H](CCCCN)NC(=O)c2ccc(-c3ccc(Cl)cc3)cc2)C(=O)N[C@@H](C)C(=O)N1 | 0.60
C[C@H](NC(=O)[C@@H]1Cc2ccc(OCCN)c(c2)-c2cc(ccc2OCCN)[C@H](N(C)C(=O)[C@H](CCCCN)NC(=O)c2ccc(-c3ccc(Cl)cc3)cc2)C(=O)N[C@@H](C)C(=O)N1)B1O[C@@H]2C[C@@H]3C[C@@H](C3(C)C)[C@]2(C)O1 | -1.03
C[C@@H]1NC(=O)[C@@H](N(C)C(=O)[C@H](CCCCN)NC(=O)c2cccc(-c3ccc(Cl)cc3)c2)c2ccc(OCCN)c(c2)-c2cc(ccc2OCCN)C[C@@H](C(=O)O)NC1=O | 0.30
CCCCCCCCCCC(=O)N[C@@H](CCN)C(=O)N(C)[C@@H]1C(=O)N[C@@H](C)C(=O)N[C@H](C(=O)O)Cc2ccc(OCCN)c(c2)-c2cc1ccc2OCCN | -0.42
